- System: mRNA
- assay-protocol: IVT capping rate of mRNA by LC-MS after RNase H cleavage
- Type: biochemical
measurement-kind: Capping rate (%)

[
  {
    "compound": "COC1C(O)C(n2c[n+](C)c3c(=O)[nH]c(N)nc32)OC1C1CC1P(=O)(O)OP(=O)(O)OP(=O)(O)OCC1OC(n2cnc3c(N)ncnc32)C(OC)C1OP(=O)(O)OCC1OC(n2cnc3c(=O)[nH]c(N)nc32)C(O)C1O (stereo not drawn)",
    "measured-target": "mRNA",
    "measurement-kind": "Capping rate (%)",
    "numeric-readout": 98.4
  },
  {
    "compound": "COC1C(OP(=O)(O)OCC2OC(n3cnc4c(=O)[nH]c(N)nc43)C(O)C2O)C(COP(=O)(O)OP(=O)(O)OP(=O)(O)C2CC2C2OC(n3c[n+](C)c4c(=O)[nH]c(N)nc43)C(F)C2O)OC1n1cnc2c(N)ncnc21 (stereo not drawn)",
    "measured-target": "mRNA",
    "measurement-kind": "Capping rate (%)",
    "numeric-readout": 94.5
  },
  {
    "compound": "CO[C@@H]1[C@H](OP(=O)(O)C2CC2[C@H]2O[C@@H](n3cnc4c(=O)[nH]c(N)nc43)[C@H](O)[C@@H]2O)[C@@H](COP(=O)(O)OP(=O)(O)OP(=O)(O)OC[C@H]2O[C@@H](n3c[n+](C)c4c(=O)[nH]c(N)nc43)[C@H](O)[C@@H]2O)O[C@H]1n1cnc2c(N)ncnc21 (stereo partly drawn)",
    "measured-target": "mRNA",
    "measurement-kind": "Capping rate (%)",
    "numeric-readout": 96.0
  }
]

---

- Test system: mRNA
- assay-protocol: IVT capping rate of mRNA by LC-MS after RNase H cleavage
- Assay type: biochemical

[
  {
    "compound": "COC1C(OP(=O)(O)OCC2OC(n3cnc4c(=O)[nH]c(N)nc43)C(O)C2O)C(COP(=O)(O)OP(=O)(O)OP(=O)(O)C2CC2C2OC(n3c[n+](C)c4c(=O)[nH]c(N)nc43)C(O)C2CNC(C)=O)OC1n1cnc2c(N)ncnc21 (stereo not shown) [Compound 10]",
    "Capping rate (%)": 96.3
  },
  {
    "compound": "CO[C@@H]1[C@H](OP(=O)(O)OC[C@H]2O[C@@H](n3cnc4c(=O)[nH]c(N)nc43)[C@H](O)[C@@H]2O)[C@@H](COP(O)(=S)OP(=O)(O)OP(=O)(O)C2CC2[C@H]2O[C@@H](n3c[n+](C)c4c(=O)[nH]c(N)nc43)[C@H](O)[C@@H]2O)O[C@H]1n1cnc2c(N)ncnc21 (stereo partly shown) [Compound 14]",
    "Capping rate (%)": 98.0
  },
  {
    "compound": "CO[C@@H]1[C@H](OP(=O)(O)OC[C@H]2O[C@@H](n3cnc4c(=O)[nH]c(N)nc43)[C@H](O)[C@@H]2O)[C@@H](COP(=O)(O)OP(=O)(O)OP(=O)(O)OC[C@H]2O[C@@H](n3c[n+](C)c4c(=O)[nH]c(N)nc43)[C@H](O)[C@@H]2O)O[C@H]1n1cnc2c(N)ncnc21 [Compound 43, reference compound]",
    "Capping rate (%)": 96.1
  },
  {
    "compound": "CO[C@@H]1[C@H](OP(=O)(O)OC[C@H]2O[C@@H](n3cnc4c(=O)[nH]c(N)nc43)[C@H](O)[C@@H]2O)[C@@H](C2CC2P(=O)(O)OP(=O)(O)OP(=O)(O)OC[C@H]2O[C@@H](n3c[n+](C)c4c(=O)[nH]c(N)nc43)[C@H](O)[C@@H]2O)O[C@H]1n1cnc2c(N)ncnc21 (stereo partly shown) [Compound 21]",
    "Capping rate (%)": 97.1
  }
]
